Assayed System: MAP kinase-activated protein kinase 2 (Homo sapiens, UniProt P49137)
Sequence (P49137 whole entry): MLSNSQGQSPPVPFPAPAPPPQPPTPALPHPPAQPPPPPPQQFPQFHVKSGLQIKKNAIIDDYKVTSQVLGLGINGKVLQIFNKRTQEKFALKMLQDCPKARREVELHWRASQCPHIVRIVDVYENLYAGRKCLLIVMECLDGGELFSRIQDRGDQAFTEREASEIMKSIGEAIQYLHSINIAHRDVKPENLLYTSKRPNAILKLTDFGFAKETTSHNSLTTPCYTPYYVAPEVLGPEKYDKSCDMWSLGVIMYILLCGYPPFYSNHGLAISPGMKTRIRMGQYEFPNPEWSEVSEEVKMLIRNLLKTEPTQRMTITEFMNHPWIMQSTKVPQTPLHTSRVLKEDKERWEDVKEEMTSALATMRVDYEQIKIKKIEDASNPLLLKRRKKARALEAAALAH
Test Protocol: Inhibition of MK2-mediated HSP27 phosphorylation in IL-1beta stimulated human SW1353 cells incubated for 30 mins prior to IL-1beta-stimulation measured after 27 mins by ELISA
Experimental Readout: EC50

In the examples that follow, each entry is paired with its recorded EC50.
                                        mol  observed_measurement
0  O=C(Nc1ccc(C2=CCNCC2)cc1)c1ccc(-c2ccc(Cl)cc2)o1                1.3 µM
1  O=C(Nc1ccc(N2CCNCC2)c(F)c1)c1ccc(-c2ccc(Cl)cc2)o1              > 3.4 µM
2  O=C(Nc1ccc(N2CCNCC2)cc1)c1ccc(-c2ccc(C(F)(F)F)cc2)o1              > 7.7 µM
3  O=C(Nc1ccc(N2CCNCC2)cc1)c1ccc(-c2ccccc2Cl)o1                > 8 µM
4  O=C(Nc1ccc(N2CCNCC2)cc1)c1ccc(-c2cccc(Cl)c2)o1                > 5 µM

Parameter requested: EC50. Apply to each item below.
1. CC(C)N(C(=O)c1ccc(-c2ccc(Cl)cc2)o1)c1ccc(N2CCNCC2)cc1
2. O=C(Nc1ccc(N2CCNCC2)cc1C(F)(F)F)c1ccc(-c2ccc(Cl)cc2)o1

*A*
["2.7 µM", "> 8 µM"]

* * *

Test Protocol: Solubility of the compound
Format: physicochemical
Experimental Readout: solubility

*Q* Suppose we examine the molecule O=C(Nc1ccc(N2CCNCC2)cc1)c1ccc(-c2ccc(Cl)cc2)o1 ; what solubility value has been reported?
*A* > 20 µM

* * *

Assayed System: Rho-associated protein kinase 2 (Homo sapiens)
Sequence (O75116 whole entry): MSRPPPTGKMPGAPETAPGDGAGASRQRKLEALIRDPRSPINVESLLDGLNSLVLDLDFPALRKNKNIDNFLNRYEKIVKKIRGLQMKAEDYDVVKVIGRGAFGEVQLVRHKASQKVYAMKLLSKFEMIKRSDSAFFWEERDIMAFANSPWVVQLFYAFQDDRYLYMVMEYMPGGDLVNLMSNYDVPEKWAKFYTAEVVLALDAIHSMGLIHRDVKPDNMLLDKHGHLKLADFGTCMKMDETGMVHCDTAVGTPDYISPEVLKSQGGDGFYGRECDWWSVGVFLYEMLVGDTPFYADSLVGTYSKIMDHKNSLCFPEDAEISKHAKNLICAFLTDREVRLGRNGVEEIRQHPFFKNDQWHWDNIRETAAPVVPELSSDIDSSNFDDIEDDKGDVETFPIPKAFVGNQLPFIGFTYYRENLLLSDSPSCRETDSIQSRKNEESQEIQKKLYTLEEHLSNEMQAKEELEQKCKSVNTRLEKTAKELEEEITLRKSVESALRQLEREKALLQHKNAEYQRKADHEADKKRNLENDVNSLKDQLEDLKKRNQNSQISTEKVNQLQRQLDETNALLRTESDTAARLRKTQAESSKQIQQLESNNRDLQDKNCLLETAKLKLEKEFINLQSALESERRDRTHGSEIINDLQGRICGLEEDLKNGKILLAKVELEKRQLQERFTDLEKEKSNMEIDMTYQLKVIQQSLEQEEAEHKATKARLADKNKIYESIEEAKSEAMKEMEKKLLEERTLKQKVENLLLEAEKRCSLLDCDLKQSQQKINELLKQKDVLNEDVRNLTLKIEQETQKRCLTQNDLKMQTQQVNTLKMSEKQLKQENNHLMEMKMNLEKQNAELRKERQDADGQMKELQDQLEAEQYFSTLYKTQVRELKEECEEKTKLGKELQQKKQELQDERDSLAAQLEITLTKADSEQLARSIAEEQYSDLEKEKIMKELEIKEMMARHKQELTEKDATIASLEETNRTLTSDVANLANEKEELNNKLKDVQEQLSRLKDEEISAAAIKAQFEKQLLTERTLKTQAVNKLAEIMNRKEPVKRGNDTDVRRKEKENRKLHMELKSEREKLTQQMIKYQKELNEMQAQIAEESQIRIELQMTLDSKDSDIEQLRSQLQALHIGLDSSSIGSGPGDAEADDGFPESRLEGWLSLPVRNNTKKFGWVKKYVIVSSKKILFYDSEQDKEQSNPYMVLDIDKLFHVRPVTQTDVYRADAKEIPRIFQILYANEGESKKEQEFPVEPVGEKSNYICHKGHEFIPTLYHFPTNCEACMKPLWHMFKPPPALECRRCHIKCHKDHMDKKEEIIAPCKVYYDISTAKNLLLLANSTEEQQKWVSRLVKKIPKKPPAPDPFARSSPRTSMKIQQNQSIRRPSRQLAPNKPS
pIC50: −log10 of the molar value.
Experimental Readout: pIC50

*Q* Suppose we examine the compound O=C(Nc1ccc(N2CCNCC2)cc1)c1ccc(-c2ccc(Cl)cc2)o1 ; what pIC50 value has been reported?
*A* < 4.52

* * *

Assayed System: Insulin-like growth factor 1 receptor (Homo sapiens)
Sequence (P08069 31-736 limits assumed): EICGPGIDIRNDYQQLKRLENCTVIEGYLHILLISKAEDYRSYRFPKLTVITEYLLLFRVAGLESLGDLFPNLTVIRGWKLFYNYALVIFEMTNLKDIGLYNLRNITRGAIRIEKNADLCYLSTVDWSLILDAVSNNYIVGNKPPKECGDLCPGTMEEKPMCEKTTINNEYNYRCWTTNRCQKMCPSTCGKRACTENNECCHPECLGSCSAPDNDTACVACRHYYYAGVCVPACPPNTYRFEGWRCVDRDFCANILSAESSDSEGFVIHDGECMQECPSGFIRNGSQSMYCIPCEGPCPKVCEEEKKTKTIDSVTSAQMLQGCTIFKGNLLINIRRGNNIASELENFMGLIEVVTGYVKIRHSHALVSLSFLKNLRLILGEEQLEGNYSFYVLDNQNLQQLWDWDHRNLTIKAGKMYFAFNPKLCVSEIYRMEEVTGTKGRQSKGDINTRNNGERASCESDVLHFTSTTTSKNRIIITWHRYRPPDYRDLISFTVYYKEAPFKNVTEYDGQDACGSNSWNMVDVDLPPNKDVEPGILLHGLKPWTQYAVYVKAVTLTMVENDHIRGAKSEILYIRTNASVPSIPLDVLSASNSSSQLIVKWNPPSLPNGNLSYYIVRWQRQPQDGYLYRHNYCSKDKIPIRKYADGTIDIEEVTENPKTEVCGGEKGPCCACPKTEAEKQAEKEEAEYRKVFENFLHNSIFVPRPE
Sequence (P08069 741-1367 limits assumed): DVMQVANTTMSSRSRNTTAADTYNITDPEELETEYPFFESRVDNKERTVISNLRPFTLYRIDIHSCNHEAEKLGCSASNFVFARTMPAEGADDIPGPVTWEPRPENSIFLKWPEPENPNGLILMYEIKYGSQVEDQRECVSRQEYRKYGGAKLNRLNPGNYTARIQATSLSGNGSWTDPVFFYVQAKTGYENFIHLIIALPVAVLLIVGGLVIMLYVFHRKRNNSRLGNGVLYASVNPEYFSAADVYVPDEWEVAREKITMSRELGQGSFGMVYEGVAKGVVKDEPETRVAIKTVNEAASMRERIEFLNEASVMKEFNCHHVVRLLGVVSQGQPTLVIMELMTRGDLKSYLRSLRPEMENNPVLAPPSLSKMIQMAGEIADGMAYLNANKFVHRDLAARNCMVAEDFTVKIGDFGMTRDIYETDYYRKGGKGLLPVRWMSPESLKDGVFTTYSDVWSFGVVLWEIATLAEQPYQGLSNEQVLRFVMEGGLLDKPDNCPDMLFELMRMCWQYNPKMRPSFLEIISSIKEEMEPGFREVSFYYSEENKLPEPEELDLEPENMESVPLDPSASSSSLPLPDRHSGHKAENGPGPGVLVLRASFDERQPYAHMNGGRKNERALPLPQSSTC
Experimental Readout: IC50

*Q* Suppose we examine the compound O=C(Nc1ccc(N2CCNCC2)cc1)c1ccc(-c2ccc(Cl)cc2)o1 ; what IC50 value has been reported?
*A* > 30 µM

* * *

Assayed System: Cytochrome P450 3A4 (Homo sapiens)
Sequence (P08684 whole entry): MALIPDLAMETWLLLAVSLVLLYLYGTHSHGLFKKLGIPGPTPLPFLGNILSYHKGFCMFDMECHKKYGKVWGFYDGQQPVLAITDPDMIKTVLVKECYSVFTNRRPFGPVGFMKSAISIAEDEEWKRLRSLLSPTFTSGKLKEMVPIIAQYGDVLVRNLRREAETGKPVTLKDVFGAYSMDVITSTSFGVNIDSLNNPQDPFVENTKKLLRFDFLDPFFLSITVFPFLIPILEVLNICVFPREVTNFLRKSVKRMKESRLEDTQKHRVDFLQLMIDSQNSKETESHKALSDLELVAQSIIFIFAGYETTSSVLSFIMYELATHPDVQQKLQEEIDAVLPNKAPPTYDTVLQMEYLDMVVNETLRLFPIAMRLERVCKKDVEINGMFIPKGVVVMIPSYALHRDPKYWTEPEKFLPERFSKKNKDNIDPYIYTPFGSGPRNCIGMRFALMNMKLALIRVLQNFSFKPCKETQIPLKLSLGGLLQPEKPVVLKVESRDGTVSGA
Test Protocol: Inhibition of CYP3A4 in human liver microsomes co-incubated with testosterone
Assay type: ADME, Microsome
Experimental Readout: IC50

*Q* Suppose we examine the compound O=C(c1ccc(-c2ccc(Cl)cc2)o1)N(Cc1ccccn1)c1ccc(N2CCNCC2)cc1 ; what IC50 value has been reported?
*A* > 20 µM

* * *

Assayed System: Cytochrome P450 2D6 (Homo sapiens, UniProt P10635)
Sequence (P10635 whole entry): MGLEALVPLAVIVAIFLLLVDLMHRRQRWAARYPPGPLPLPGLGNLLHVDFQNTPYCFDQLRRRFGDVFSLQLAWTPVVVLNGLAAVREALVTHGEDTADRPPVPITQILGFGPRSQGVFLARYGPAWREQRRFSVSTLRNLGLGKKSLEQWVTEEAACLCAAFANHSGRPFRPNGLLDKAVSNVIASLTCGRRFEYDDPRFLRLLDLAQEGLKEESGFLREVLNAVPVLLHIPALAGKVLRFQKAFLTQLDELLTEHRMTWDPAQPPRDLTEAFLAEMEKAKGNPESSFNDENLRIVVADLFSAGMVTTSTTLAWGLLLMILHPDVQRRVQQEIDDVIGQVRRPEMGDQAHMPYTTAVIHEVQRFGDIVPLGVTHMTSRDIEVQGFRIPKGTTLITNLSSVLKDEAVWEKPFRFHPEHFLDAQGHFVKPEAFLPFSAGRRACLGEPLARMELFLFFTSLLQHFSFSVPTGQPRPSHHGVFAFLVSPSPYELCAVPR
Test Protocol: Inhibition of CYP2D6 in human liver microsomes co-incubated with dextromethorphan
Format: ADME, Microsome
Experimental Readout: IC50

*Q* Suppose we examine the compound O=C(c1ccc(-c2ccc(Cl)cc2)o1)N(Cc1ccccn1)c1ccc(N2CCNCC2)cc1 ; what IC50 value has been reported?
*A* > 20 µM

* * *

Assayed System: Cytochrome P450 2D6 (Homo sapiens, UniProt P10635)
Test Protocol: Inhibition of CYP2D6 in human liver microsomes using dextromethorphan as substrate incubated for 30 mins prior to substrate addition
Type: ADME, Microsome
Experimental Readout: IC50

*Q* Suppose we examine the molecule O=C(c1ccc(-c2ccc(Cl)cc2)o1)N(Cc1ccccn1)c1ccc(N2CCNCC2)cc1 ; what IC50 value has been reported?
*A* > 20 µM

Source listed as ChEMBL document CHEMBL2016522.
